biological target: Mitogen-activated protein kinase 14 (Homo sapiens, UniProt Q16539); assay: Unactivated p38alpha cascade assay; conditions: pH 7.5; 25 °C
Sequence (Q16539 whole entry): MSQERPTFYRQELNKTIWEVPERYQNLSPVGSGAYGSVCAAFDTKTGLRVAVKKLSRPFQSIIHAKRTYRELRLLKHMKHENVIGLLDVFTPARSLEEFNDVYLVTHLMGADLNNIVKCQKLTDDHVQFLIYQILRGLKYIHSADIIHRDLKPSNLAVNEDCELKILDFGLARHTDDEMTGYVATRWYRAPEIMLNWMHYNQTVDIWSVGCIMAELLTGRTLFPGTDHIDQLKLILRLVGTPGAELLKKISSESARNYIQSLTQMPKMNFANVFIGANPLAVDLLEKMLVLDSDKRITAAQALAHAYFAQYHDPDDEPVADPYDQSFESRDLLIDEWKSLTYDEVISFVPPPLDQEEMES
IC50 values for the molecules below.
Give the value, in units of µM, as a plain number.

Cc1ccc(C(=O)NC(C)(O)NCc2ccc(-n3nc(C(C)(C)C)cc3NC(=O)Nc3ccccc3)cc2)cc1C(=O)O (stereo unspecified) [(9a) BIRB796]; 0.006
O=S1(=O)N=c2ccc3c4c(c5ccccc5c(c24)O1)OS(=O)(=O)N=3 [CP-232880]; 1.03
Brc1ccc(-c2c[nH]c(-c3cc4ccccc4cn3)n2)cc1 [PF-04764755]; 0.32
Cc1cc(C(=O)NC(C)(O)NCc2ccc(-n3nc(C(C)(C)C)cc3NC(=O)Nc3ccccc3)cc2)ccc1C(=O)O (stereo unspecified) [(10a) BIRB796]; 0.007
NCCC(=O)c1cccc(Oc2cccc(C(=O)CCN)c2)c1 [UK-146015]; 6
Clc1ccc(-c2c[nH]c(-c3cc4ccccc4cn3)n2)cc1 [PF-00215924]; 0.11
CC(=O)c1cc(C(=O)NCc2ccc(-n3nc(C(C)(C)C)cc3NC(=O)Nc3cccc4ccccc34)cc2)ccc1C [(5a) BIRB796]; 0.008
Cc1ccc(C(=O)NC(O)(NC(=O)NCc2ccc(-n3nc(C(C)(C)C)cc3NC(=O)Nc3ccccc3)cc2)C2CCCC2)cc1C(=O)O (stereo unspecified) [(9b) BIRB796]; 0.022
Cc1ccc(C(=O)NCc2ccc(-n3nc(C(C)(C)C)cc3NC(=O)Nc3cccc4ccccc34)cc2)cc1C(=O)O [(7a) BIRB796]; 0.011
Cc1ccc(C(=O)NC(O)(NCc2ccc(-n3nc(C(C)(C)C)cc3NC(=O)Nc3cccc4ccccc34)cc2)C2CCCC2)cc1C(=O)O (stereo unspecified) [(7b) BIRB796]; 0.036

Measured IC50 of Cc1cc(C(=O)[n+]2cccc(C(=O)NCc3ccc(-n4nc(C(C)(C)C)cc4NC(=O)Nc4ccccc4)cc3)c2)ccc1C(=O)O [(12b) BIRB796] : 0.062

# IC50 of Cc1ccc(C(=O)NC(=O)NCc2ccc(-n3nc(C(C)(C)C)cc3NC(=O)Nc3ccccc3)cc2)cc1C(=O)O [(11a) BIRB796] = 0.011

Input Clc1cccc(-c2c[nH]c(-c3cc4ccccc4cn3)n2)c1 [PF-00240292] . Output IC50: 2.3

Item: Cc1ccc(C(=O)[n+]2cccc(C(=O)NCc3ccc(-n4nc(C(C)(C)C)cc4NC(=O)Nc4ccccc4)cc3)c2)cc1C(=O)O [(11b) BIRB796] | IC50: 0.035

Data point: CC(=O)c1cc(C(=O)NC(O)(NCc2ccc(-n3nc(C(C)(C)C)cc3NC(=O)Nc3cccc4ccccc34)cc2)C2CCCC2)ccc1C (stereo unspecified) [(5b) BIRB796] ; IC50 = 0.026

Recorded IC50 (molecule Cc1cc(C(=O)NC(=O)NCc2ccc(-n3nc(C(C)(C)C)cc3NC(=O)Nc3ccccc3)cc2)ccc1C(=O)O [(12a) BIRB796] ): 0.053

----------
target: Mitogen-activated protein kinase 14 (Homo sapiens, UniProt Q16539); assay: Active p38alpha cascade assay; details: pH 7.5; 25 °C
As shown below, each of these molecules has a reported log10 IC50 value.
In our notation, the value equals log10 of IC50 in µM.

Below are worked cases with known answers.
Brc1ccc(-c2c[nH]c(-c3cc4ccccc4cn3)n2)cc1 [PF-04764755]; 0.47
CC(=O)c1cc(C(=O)NCc2ccc(-n3nc(C(C)(C)C)cc3NC(=O)Nc3cccc4ccccc34)cc2)ccc1C [(5a) BIRB796]; -0.03
Cc1cc(C(=O)NC(=O)NCc2ccc(-n3nc(C(C)(C)C)cc3NC(=O)Nc3ccccc3)cc2)ccc1C(=O)O [(12a) BIRB796]; 0.20
Cc1ccc(C(=O)NC(O)(NCc2ccc(-n3nc(C(C)(C)C)cc3NC(=O)Nc3cccc4ccccc34)cc2)C2CCCC2)cc1C(=O)O (stereo unspecified) [(7b) BIRB796]; 0.05
Cc1ccc(C(=O)NCc2ccc(-n3nc(C(C)(C)C)cc3NC(=O)Nc3cccc4ccccc34)cc2)cc1C(=O)O [(7a) BIRB796]; -0.16

The measured log10 IC50 associated with Cc1ccc(C(=O)NC(=O)NCc2ccc(-n3nc(C(C)(C)C)cc3NC(=O)Nc3ccccc3)cc2)cc1C(=O)O [(11a) BIRB796] reads 0.03

The recorded log10 IC50 for Cc1cc(C(=O)NC(C)(O)NCc2ccc(-n3nc(C(C)(C)C)cc3NC(=O)Nc3ccccc3)cc2)ccc1C(=O)O (stereo unspecified) [(10a) BIRB796] is -0.58

Short answer for Cc1ccc(C(=O)NC(C)(O)NCc2ccc(-n3nc(C(C)(C)C)cc3NC(=O)Nc3ccccc3)cc2)cc1C(=O)O (stereo unspecified) [(9a) BIRB796] : log10 IC50 was -0.42

Entry Clc1ccc(-c2c[nH]c(-c3cc4ccccc4cn3)n2)cc1 [PF-00215924] ; log10 IC50 = -2.74

What the record says about O=S1(=O)N=c2ccc3c4c(c5ccccc5c(c24)O1)OS(=O)(=O)N=3 [CP-232880] : log10 IC50 is 0.32

# log10 IC50 of Cc1cc(C(=O)[n+]2cccc(C(=O)NCc3ccc(-n4nc(C(C)(C)C)cc4NC(=O)Nc4ccccc4)cc3)c2)ccc1C(=O)O [(12b) BIRB796] = 0.17

Please fill in: log10 IC50 reported for Cc1ccc(C(=O)[n+]2cccc(C(=O)NCc3ccc(-n4nc(C(C)(C)C)cc4NC(=O)Nc4ccccc4)cc3)c2)cc1C(=O)O [(11b) BIRB796] = 0.09

Please fill in: log10 IC50 reported for CC(=O)c1cc(C(=O)NC(O)(NCc2ccc(-n3nc(C(C)(C)C)cc3NC(=O)Nc3cccc4ccccc34)cc2)C2CCCC2)ccc1C (stereo unspecified) [(5b) BIRB796] = 0.05

Per the records, this molecule ( Cc1ccc(C(=O)NC(O)(NC(=O)NCc2ccc(-n3nc(C(C)(C)C)cc3NC(=O)Nc3ccccc3)cc2)C2CCCC2)cc1C(=O)O (stereo unspecified) [(9b) BIRB796] ) has log10 IC50 equal to -0.09
